Value source: ChEMBL document CHEMBL5030546

system: BALB/3T3; experiment: Cytotoxicity against mouse BALB/3T3 cells assessed as reduction in cell viability incubated for 72 hrs by SRB assay; format: ADME, cell-based; settings: BALB/3T3, 72 h
pIC50: −log10 of the molar value.
Entries and their pIC50 values follow.

- Compound: "CCCCCCN[C@H]1CCc2cc(OC)c(OC)c(OC)c2-c2ccc(SC)c(=O)cc21"
  System Name: "BALB/3T3"
  pIC50: 6.97
- Compound: "COc1cc2c(c(OC)c1OC)-c1ccc(SC)c(=O)cc1[C@@H](NCC(C)C)CC2"
  System Name: "BALB/3T3"
  pIC50: 7.96
- Compound: "CCCCCCCCN[C@H]1CCc2cc(OC)c(OC)c(OC)c2-c2ccc(SC)c(=O)cc21"
  System Name: "BALB/3T3"
  pIC50: 5.98
- Compound: "CCCC(C)CN[C@H]1CCc2cc(OC)c(OC)c(OC)c2-c2ccc(SC)c(=O)cc21 (stereo not given in full)"
  System Name: "BALB/3T3"
  pIC50: 7.11
- Compound: "COc1cc2c(c(OC)c1OC)-c1ccc(OC)c(=O)cc1[C@@H](NC(C)=O)CC2 [COLCHICINE]"
  System Name: "BALB/3T3"
  pIC50: 7.08
